Tested on: RPS6KA4(Kin.Dom.2-C-terminal);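 further: KINOMEscan kinase panel screen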
testContext: concentration: 1 μM, replicates: in singlicate; n = 1
Overview of recorded %Inh for various compounds
I only need the number, in %, no unit after it.

Worked cases, answers included:
compound: Clc1cc(Nc2ncnc3cc[nH]c23)ccc1OCc1ccccn1
measure: %Inh
displayUnit: %
testValue: 11
//
compound: COc1ccc(-c2oc3ncnc(N)c3c2-c2ccc(OC)cc2)cc1 [SB-589132]
measure: %Inh
displayUnit: %
testValue: 0

Task: Please report the recorded %Inh for CNc1nccc(-c2c(-c3ccc(F)cc3)ncn2CCCN2CCOCC2)n1 [SB-222516] .
Result: 1

Task: Same for O=C(Nc1ccccc1F)NC1CCN(c2ccnc(Nc3ccc(F)cc3)n2)C1 (centres unmarked) [GSK1379722]
Result: 0
